This collection of values is drawn from the supplement of paper PMC10567573.

B1: STK38L (parent)
chain: NWKETLVFPPEVPISEKAKDLILR

Variants of: B1
Assay: protein stability index of a GFP-peptide fusion (GPS, HEK-293T) (PSI 1-6); higher = more stable;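 note: lentivirally expressed fusions sorted by FACS into six bins by GFP to DsRed ratio, PSI derived from sequencing read proportions per bin multiplied by bin number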
Details: c terminus: a fixed tail appended
Reported protein stability index by item:
Endpoint: protein stability index

{"Variant Name": "F8Q", "Observed": 3.53}
{"Variant Name": "L23D", "Observed": 4.92}
{"Variant Name": "R24H", "Observed": 3.16}
{"Variant Name": "L23W", "Observed": 2.12}
{"Variant Name": "L21D", "Observed": 3.72}
{"Variant Name": "S15L", "Observed": 1.84}
{"Variant Name": "V7Q", "Observed": 3.95}
{"Variant Name": "F8E", "Observed": 3.98}
{"Variant Name": "L21V", "Observed": 3.53}
